- Tested on: nNHDF cells
- ASSAY_TEXT: Neutral Red Uptake (NRU) assay, lysosomal integrity
- Format: cell-based, human
- TEST_PARAMETERS: 24 h, absence of TiO2 NPs (control)
PARAMETER_MEASURED: pEC50
The value called pEC50 is obtained by taking minus log10 of the concentration in mol/L.

Here is how some molecules turned out for pEC50.
>>> experimental_result("CCOC(=O)c1ccc(O)cc1")
2.45
>>> experimental_result("CCCCOC(=O)c1ccc(O)cc1")
3.16
>>> experimental_result("Nc1ccc(N)cc1")
2.87

Now consider a different molecule.
Any idea what its pEC50 is? The molecule is CCCOC(=O)c1ccc(O)cc1 2.90
